Overview of recorded MIC Staphylococcus aureus (GC 4542) for various compounds
Tested on: Staphylococcus sp.
Protocol details: in vitro antibacterial evaluation, MIC by broth dilution
Type: cell-based
Recorded conditions: broth dilution, 18 hours at 35° C.; strain GC 4542
Numbered stars: 1 amine (or outer) side, 2 acyl side, 3 side chain; on linkers, the order of the positions; unused ones are H or OH. Square brackets hold non-standard residues; d marks the D form. Peptide text beside a SMILES is read from it. * marks the point of attachment. ξ: configuration not given here. X1 = N=C1NCC(C(O)C(N[*:1])C(=O)[*:2])N1C1OC(CO)C(O)C(O)C1O; ξEnduracididine(βξ-OH,4'ξ) = N=C1NCC(C(O)C(N)C(=O)O)N1; X2 = OCC1OC(OC2C(CO)OC(*)C(O)C2O)C(O)C(O)C1O; Cha = N[CH](CC1CCCCC1)C(=O)O
Readout name: MIC Staphylococcus aureus (GC 4542)

Compound: CC(C)CC(=O)OC1C(OC2C(CO)OC(Oc3ccc(CC4NC(=O)C(C(C)c5cccc(F)c5)NC(=O)CNC(=O)C(CO)NC(=O)C(C(O)C5CNC(=N)N5C5OC(CO)C(O)C(O)C5O)NC(=O)C(C(O)C5CNC(=N)N5)NC4=O)cc3)C(O)C2O)OC(CO)C(O)C1O (stereo not shown) [Example 264a]
Result: 16 µg/mL
//
Compound: CCCCCNC(=O)OCC1OC(OC2C(CO)OC(Oc3ccc(CC4NC(=O)C(C(C)c5ccccc5)NC(=O)CNC(=O)C(CO)NC(=O)C(C(O)C5CNC(=N)N5C5OC(CO)C(O)C(O)C5O)NC(=O)C(C(O)C5CNC(=N)N5)NC4=O)cc3)C(O)C2O)C(O)C(O)C1O (stereo not shown) [Example 251b]
Result: 8 µg/mL
//
Compound: COc1ccc2cc(COCC3OC(OC4C(CO)OC(Oc5ccc(CC6NC(=O)C(C(C)c7ccccc7)NC(=O)CNC(=O)C(CO)NC(=O)C(CC7CNC(=N)N7C7OC(CO)C(O)C(O)C7O)NC(=O)C(CC7CNC(=N)N7)NC6=O)cc5)C(O)C4O)C(O)C(O)C3O)ccc2c1 (stereo not shown)
Result: 4 µg/mL
//
Compound: CC(c1ccccc1)C1NC(=O)CNC(=O)C(CO)NC(=O)C(C(O)C2CNC(=N)N2C2OC(CO)C(O)C(O)C2O)NC(=O)C(C(O)C2CNC(=N)N2)NC(=O)C(Cc2ccc(OC3OC(CO)C(OC4OC5COC(c6cccc(Oc7ccccc7)c6)OC5C(O)C4O)C(O)C3O)cc2)NC1=O (stereo not shown)
Result: 4 µg/mL
//
Compound: CC(c1ccccc1)C1NC(=O)CNC(=O)C(CO)NC(=O)C(CC2CNC(=N)N2C2OC(CO)C(O)C(O)C2O)NC(=O)C(CC2CNC(=N)N2)NC(=O)C(Cc2ccc(OC3OC(CO)C(OC4OC(COCc5ccc(OCc6ccccc6)cc5)C(O)C(O)C4O)C(O)C3O)cc2)NC1=O (stereo not shown)
Result: 4 µg/mL
//
Compound: CCOc1cc(C2OCC3OC(OC4C(CO)OC(Oc5ccc(CC6NC(=O)C(C(C)c7ccccc7)NC(=O)CNC(=O)C(CO)NC(=O)C(C(O)C7CNC(=N)N7C7OC(CO)C(O)C(O)C7O)NC(=O)C(C(O)C7CNC(=N)N7)NC6=O)cc5)C(O)C4O)C(O)C(O)C3O2)ccc1OC (stereo not shown)
Result: 16 µg/mL
//
Compound: N=C1NCC(C(O)C2NC(=O)C(Cc3ccc(OC4OC(CO)C(OC5OC(CO)C(O)C(O)C5O)C(O)C4O)cc3)NC(=O)C(CC3CCCCC3)NC(=O)CNC(=O)C(CO)NC(=O)C(C(O)C3CNC(=N)N3C3OC(CO)C(O)C(O)C3O)NC2=O)N1 (stereo not drawn) [Example 263] (cyclo(G[Cha]Y(X2)[ξEnduracididine(βξ-OH,4'ξ)][X1]S); configuration not given here)
Result: 64 µg/mL

Origin of measurements: patent US6914045B2
